TARGET DESC: Histone deacetylase 2 (Homo sapiens, UniProt Q92769)
Sequence (Q92769 whole entry): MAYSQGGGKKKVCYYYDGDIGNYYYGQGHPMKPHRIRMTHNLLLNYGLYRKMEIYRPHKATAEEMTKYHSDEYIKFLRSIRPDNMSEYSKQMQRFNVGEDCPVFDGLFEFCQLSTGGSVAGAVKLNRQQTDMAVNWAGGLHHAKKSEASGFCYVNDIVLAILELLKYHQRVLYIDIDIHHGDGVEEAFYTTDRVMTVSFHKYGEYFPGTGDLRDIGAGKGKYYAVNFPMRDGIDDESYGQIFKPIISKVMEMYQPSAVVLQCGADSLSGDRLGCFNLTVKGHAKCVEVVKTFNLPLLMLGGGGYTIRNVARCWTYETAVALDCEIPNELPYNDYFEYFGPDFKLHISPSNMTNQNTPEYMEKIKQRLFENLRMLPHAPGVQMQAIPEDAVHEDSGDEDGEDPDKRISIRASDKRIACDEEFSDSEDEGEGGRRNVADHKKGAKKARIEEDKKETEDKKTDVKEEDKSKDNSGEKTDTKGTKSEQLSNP
READOUT KIND: IC50

Please look at O=C(/C=C/c1ccc(N2CC(=O)N3C(Cc4c([nH]c5ccccc45)C3c3ccc4c(c3)OCO4)C2=O)cc1)NO (stereo unspecified) and tell me its recorded IC50 on Histone deacetylase 2 (Homo sapiens, UniProt Q92769).
> 2500 nM

----------
# pKi values compiled below
TARGET DESC: Gamma-aminobutyric acid receptor subunit alpha-6 (Homo sapiens)
Sequence (Q16445 whole entry): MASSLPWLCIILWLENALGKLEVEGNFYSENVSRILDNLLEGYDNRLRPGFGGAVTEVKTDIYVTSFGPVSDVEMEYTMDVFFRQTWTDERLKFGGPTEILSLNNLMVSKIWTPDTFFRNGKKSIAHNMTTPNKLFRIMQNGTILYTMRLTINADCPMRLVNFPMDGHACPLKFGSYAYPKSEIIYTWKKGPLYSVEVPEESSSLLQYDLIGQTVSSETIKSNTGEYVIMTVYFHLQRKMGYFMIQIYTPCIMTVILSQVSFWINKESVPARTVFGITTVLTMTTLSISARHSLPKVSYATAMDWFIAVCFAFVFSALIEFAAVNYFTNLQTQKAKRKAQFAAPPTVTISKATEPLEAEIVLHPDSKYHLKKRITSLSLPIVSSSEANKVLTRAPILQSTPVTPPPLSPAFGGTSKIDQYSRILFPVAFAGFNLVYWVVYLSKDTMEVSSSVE
PROTOCOL DESCRIPTION: Binding affinity to human recombinant GABAA alpha6 receptor assessed as inhibition constant incubated for 1 hrs by liquid scintillation counting analysis
A value of pKi is the negative decimal logarithm of a concentration given in moles per litre.

> print(dat)
                                   molecule  readout.kind  value
1      CCOC(=O)c1ncc2[nH]c3ccc(O)cc3c2c1COC           pKi   5.52
2  COCc1c(C(=O)OC(C)C)ncc2[nH]c3ccc(OCc4ccccc4)cc3c12           pKi   5.19
3         CCOC(=O)c1ncc2[nH]c3ccccc3c2c1COC           pKi   5.92
4           COC(=O)c1cc2c(cn1)[nH]c1ccccc12           pKi   5.36

Quote Gamma-aminobutyric acid receptor subunit alpha-6 (Homo sapiens) pKi for entry `CCOC(=O)c1nc(C)c2[nH]c3cc(OC)c(OC)cc3c2c1CC` .
7.12

Give pKi for CC(OC(=O)c1cc2c(cn1)[nH]c1ccccc12)c1ccccc1 (stereo unspecified) tested on Gamma-aminobutyric acid receptor subunit alpha-6 (Homo sapiens).
5.52

Lab note: record pKi of `CCCOc1ccc2[nH]c3cnc(C(=O)OCC)c(COC)c3c2c1` tested on Gamma-aminobutyric acid receptor subunit alpha-6 (Homo sapiens).
5.89
